Reference source: PubChem BioAssay (NCI)

- System: TK-10 renal
- test method notes: NCI tumour cell line growth inhibition, 48 h
Each entry below lists one item and its recorded log10 of TGI value.
Please interpret these as log10 of TGI where TGI is in µM.

Below: 6 molecules and their reported log10 of TGI.
molecule="COc1ccc(/C=C2\\CCCC3=C2NC(C)=NC3c2ccc(OC)c(OC)c2)cc1OC (centres undefined)" assayed_system="TK-10 renal" value_measured=1.87
molecule=CCOC(=O)c1c(C)n(Cc2ccc(Cl)cc2Cl)c2c1cc1oc(=O)c(=O)n3c(Cc4ccccc4)nc2c13 assayed_system="TK-10 renal" value_measured=0.84
molecule="CC1CC[C@@]2(OC1)OC1C[C@H]3[C@@H]4CC[C@H]5CC(OC6OC(CO)C(OC7OC(CO)C(O)C(O)C7O)C(O)C6O)CCC5(C)[C@H]4CCC3(C)C1[C@@H]2C (some centres undefined)" assayed_system="TK-10 renal" value_measured=1.25
molecule=Cc1cn2c(/C=N/N/C(N)=N\N)c(-c3ccc(Cl)c([N+](=O)[O-])c3)nc2s1 assayed_system="TK-10 renal" value_measured=1.49
molecule=O=[N+]([O-])/C(C(Cl)=C(Cl)Cl)=C1/OCCS1 assayed_system="TK-10 renal" value_measured=1.82
molecule="CC(CCc1ccc2c(c1)c(=N)c1ccc(N)cc1n2O)CC(C)(C)C (centres undefined)" assayed_system="TK-10 renal" value_measured=0.52

Note to self: log10 of TGI of O=C(Nc1cc(Cl)c(Cl)cc1Cl)C(=O)C(C(=O)c1ccc(Cl)c(Cl)c1)C1OC(=O)c2ccccc21 (centres undefined) with TK-10 renal was 1.72

Note to self: log10 of TGI of `CCOC(=O)N1CCN(S(=O)(=O)c2oc(-c3ccc(Cl)cc3)nc2C#N)CC1` with TK-10 renal was 0.52
